tested on: EKO-35 acrBD408A; type: cell-based, Escherichia coli; settings: strain EKO-35 acrBD408A; antibiotic alone
// returns No unless MICb Alone is strictly below 2 µg/mL, in which case Yes

Cc1onc(-c2ccccc2)c1C(=O)N[C@@H]1C(=O)N2[C@@H]1SC(C)(C)[C@@H]2C(=O)O ... Yes
CC(=O)NC[C@H]1CN(c2ccc(N3CCOCC3)c(F)c2)C(=O)O1 ... No
CC[n+]1c(-c2ccccc2)c2cc(N)ccc2c2ccc(N)cc21 [ethidium bromide] ... Yes

Attention now shifts to the item below.
Ask: MICb Alone under 2 µg/mL? Item: `CC(=O)O[C@H]1C[C@@]2(C)[C@@H](C[C@@H](O)[C@H]3[C@@]4(C)CC[C@@H](O)[C@@H](C)[C@@H]4CC[C@@]32C)/C1=C(\CCC=C(C)C)C(=O)O`
Reply: No
